assay: in vitro; details: human, HEp-2 cells
Would you mind telling me the reported CC50 of each entry?
Please give a number only; it is taken to be in µM.

Which CC50 is listed for `CCC(CC)COC(=O)[C@H](C)N[P@@](=O)(OC[C@H]1O[C@@](C#N)(c2ccc3c(N)ncnn23)[C@H](O)[C@@H]1O)Oc1ccccc1` ?
26

Which CC50 is listed for C[C@H](NP(=O)(OC[C@H]1O[C@@](C#N)(c2ccc3c(N)ncnn23)[C@H](O)[C@@H]1O)Oc1ccccc1)C(=O)OC1CCCCCCC1 (some centres undefined) ?
48

Which CC50 is listed for `CC(C)C(=O)OC[C@H]1O[C@@](C#N)(c2ccc3c(N)ncnn23)[C@H](OC(=O)C(C)C)[C@@H]1OC(=O)C(C)C` ?
81

Which CC50 is listed for C[C@H](NP(=O)(OC[C@H]1O[C@@](C#N)(c2ccc3c(N)ncnn23)[C@H](O)[C@@H]1O)Oc1ccccc1)C(=O)OCC(C)(C)C (some centres undefined) ?
11

Which CC50 is listed for C[C@H](NP(=O)(OC[C@H]1O[C@@](C#N)(c2ccc3c(N)ncnn23)[C@H](O)[C@@H]1O)Oc1ccccc1)C(=O)OCC1CCC1 (some centres undefined) ?
23

Which CC50 is listed for `CCC(CC)COC(=O)[C@H](C)NP(=O)(N[C@@H](C)C(=O)OCC(CC)CC)OC[C@H]1O[C@@](C#N)(c2ccc3c(N)ncnn23)[C@H](O)[C@@H]1O` ?
36

###

assay: in vivo; conditions: chlorocebus sabaeus, iv, 10 mg/kg
measurement-label: AUC(0-inf) at 0.5 h (µM·h)
Please give a number only; it is taken to be in µM·h.

Which AUC(0-inf) at 0.5 h is listed for CCC(CC)COC(=O)[C@H](C)N[P@](=O)(OC[C@H]1O[C@@](C#N)(c2ccc3c(N)ncnn23)[C@H](O)[C@@H]1O)Oc1ccccc1 (stereo in doubt) ?
7.9

###

Would you mind telling me the reported bioavailability of each entry?
assay: in vivo; conditions: Sprague-Dawley, rat, po, 8 mg/kg
Please give a number only; it is taken to be in %.

Which bioavailability is listed for `N#C[C@@]1(c2ccc3c(N)ncnn23)O[C@H](CO)[C@@H](O)[C@H]1O` ?
12

Which bioavailability is listed for `CC(C)C(=O)OC[C@H]1O[C@@](C#N)(c2ccc3c(N)ncnn23)[C@H](OC(=O)C(C)C)[C@@H]1OC(=O)C(C)C` ?
57

###

system: Human orthopneumovirus; settings: hep-2
measurement-label: pEC50
Notebook: values listed as pEC50 are -log10 of the concentration (mol/L).

Which pEC50 is listed for CCC(CC)COC(=O)[C@H](C)N[P@](=O)(OC[C@H]1O[C@@](C#N)(c2ccc3c(N)ncnn23)[C@H](O)[C@@H]1O)Oc1ccccc1 (stereo in doubt) ?
7.82

###

experiment: in vitro; conditions: human, Caco-2
measurement-label: Papp B→A (×10⁻⁶ cm/s)
Please give a number only; it is taken to be in ×10⁻⁶ cm/s.

Which Papp B→A is listed for `CCC(=O)OC[C@H]1O[C@@](C#N)(c2ccc3c(N)ncnn23)[C@H](OC(=O)CC)[C@@H]1OC(=O)CC` ?
0.26

Which Papp B→A is listed for `CC(C)[C@H](N)C(=O)OC[C@H]1O[C@@](C#N)(c2ccc3c(N)ncnn23)[C@H](O)[C@@H]1O` ?
0.45

Which Papp B→A is listed for `CC(=O)OC[C@H]1O[C@@](C#N)(c2ccc3c(N)ncnn23)[C@H](OC(C)=O)[C@@H]1OC(C)=O` ?
1.9

Which Papp B→A is listed for `N#C[C@@]1(c2ccc3c(N)ncnn23)O[C@H](CO)[C@@H](O)[C@H]1O` ?
2.1

Which Papp B→A is listed for `CC(C)C(=O)OC[C@H]1O[C@@](C#N)(c2ccc3c(N)ncnn23)[C@H](OC(=O)C(C)C)[C@@H]1OC(=O)C(C)C` ?
1.5
